target_under_test: human M2 receptor (human Muscarinic receptor subtype 2) (Homo sapiens, UniProt P08172)
Sequence (P08172 whole entry): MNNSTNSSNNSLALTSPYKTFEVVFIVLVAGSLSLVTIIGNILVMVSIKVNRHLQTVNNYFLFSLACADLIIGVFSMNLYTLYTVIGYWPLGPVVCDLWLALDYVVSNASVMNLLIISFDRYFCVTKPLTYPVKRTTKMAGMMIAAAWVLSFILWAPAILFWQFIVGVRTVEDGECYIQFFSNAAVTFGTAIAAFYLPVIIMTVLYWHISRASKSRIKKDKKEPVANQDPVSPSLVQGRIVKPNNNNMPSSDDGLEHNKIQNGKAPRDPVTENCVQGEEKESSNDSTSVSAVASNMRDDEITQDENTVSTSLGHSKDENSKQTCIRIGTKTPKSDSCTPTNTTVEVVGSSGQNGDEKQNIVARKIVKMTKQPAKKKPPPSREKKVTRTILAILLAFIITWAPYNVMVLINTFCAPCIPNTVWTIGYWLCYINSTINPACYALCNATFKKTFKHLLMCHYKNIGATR
method_summary: hM2 receptor GTPγS binding
recorded_conditions: CHO membranes, [35S]GTPγS binding
pEC50: −log10 of the molar value.
The following compounds are listed with their measured pEC50 values.

Check out these entries, answers already filled in.
compound: CC(C)OC(=O)N1CCC(N2CCC(N3C(=O)CO[C@@H]4CCCC[C@H]43)CC2)CC1 [Example 14]
pEC50: < 4.52

compound: CCOC(=O)N1CCC(N2CCC(N3C(=O)OC[C@H]4CCCC[C@@H]43)CC2)CC1 [Example 15]
pEC50: < 4.92

compound: CC(C)OC(=O)N1CCC(N2CCC(N3C(=O)N(C)C[C@H]4CCCC[C@@H]43)CC2)CC1 [Example 6]
pEC50: < 4.52

compound: Cc1ccccc1C(=O)N1CCC(N2CCC(N3C(=O)CO[C@H]4CCCC[C@@H]43)CC2)CC1 [Example 11]
pEC50: < 4.52

Moving on to the next compound.
Value of measured pEC50 for the entry CCOC(=O)N1CCC(N2CCC(N3C(=O)CO[C@H]4CCCC[C@@H]43)CC2)CC1 [Example 9] : 5.60

----------
target_under_test: human M4 receptor (human Muscarinic receptor subtype 4) (Homo sapiens)
Sequence (P08173 1-479): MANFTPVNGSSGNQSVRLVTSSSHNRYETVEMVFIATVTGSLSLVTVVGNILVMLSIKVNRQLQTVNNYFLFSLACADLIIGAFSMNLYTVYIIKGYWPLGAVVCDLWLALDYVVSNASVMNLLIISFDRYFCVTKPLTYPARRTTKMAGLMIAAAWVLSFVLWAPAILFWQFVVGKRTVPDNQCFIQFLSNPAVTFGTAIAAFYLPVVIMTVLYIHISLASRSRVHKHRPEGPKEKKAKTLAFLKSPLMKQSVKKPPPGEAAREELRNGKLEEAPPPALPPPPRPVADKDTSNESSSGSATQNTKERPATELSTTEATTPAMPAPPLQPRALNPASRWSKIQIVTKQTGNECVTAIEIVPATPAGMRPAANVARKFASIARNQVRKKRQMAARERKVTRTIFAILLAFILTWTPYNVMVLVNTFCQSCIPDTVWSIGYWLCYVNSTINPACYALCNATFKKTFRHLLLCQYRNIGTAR
method_summary: hM4 receptor GTPγS binding
recorded_conditions: CHO membranes, [35S]GTPγS binding
pEC50: −log10 of the molar value.
attribute_measured: pEC50

Check out these entries, answers already filled in.
molecule: CCOC(=O)N1CCC(N2CCC(N3C(=O)NC[C@H]4CCCC[C@@H]43)CC2)CC1 [Example 1]
attribute_measured: pEC50
reported_result: 5.77

molecule: Cn1cccc1C(=O)N1CCC(N2CCC(N3C(=O)CO[C@H]4CCCC[C@@H]43)CC2)CC1 [Example 12]
attribute_measured: pEC50
reported_result: < 4.52

molecule: Cc1ccccc1C(=O)N1CCC(N2CCC(N3C(=O)CO[C@H]4CCCC[C@@H]43)CC2)CC1 [Example 11]
attribute_measured: pEC50
reported_result: < 4.52

molecule: Cc1ccccc1C(=O)N1CCC(N2CCC(N3C(=O)NC[C@H]4CCCC[C@@H]43)CC2)CC1 [Example 4]
attribute_measured: pEC50
reported_result: < 4.52

molecule: CCOC(=O)N1CCC(C)(N2CCC(N3C(=O)CO[C@H]4CCCC[C@@H]43)CC2)C1 (single isomer, unassigned) [Example 18]
attribute_measured: pEC50
reported_result: 5.05

Moving on to the next molecule.
Value of measured pEC50 for the entry CCOC(=O)N1CCC(N2CCC(N3C(=O)CO[C@H]4CCCC[C@@H]43)CC2)CC1 [Example 9] : 5.37
